test: Compound exposure in rats (LC-MS/MS, brain tissue binding); format: in vivo; conditions: Wistar, brain (unbound), oral; rat, 30 mg/kg, 6 h post-dose; calculated using brain tissue binding; read-out: Unbound brain exposure
quantity name: concentration at 6 h (µM)
Numbers only; they are read as µM.

Please report the recorded concentration at 6 h for COc1nc(C2=NOC[C@H](c3cc4ccccc4o3)N2)ccc1-n1cnc(C)c1 [FRM-36143] .
0.156

----------
Target: DHCR24 (Homo sapiens)
Construct: endogenous in cells
Sequence (Q15392 23-516): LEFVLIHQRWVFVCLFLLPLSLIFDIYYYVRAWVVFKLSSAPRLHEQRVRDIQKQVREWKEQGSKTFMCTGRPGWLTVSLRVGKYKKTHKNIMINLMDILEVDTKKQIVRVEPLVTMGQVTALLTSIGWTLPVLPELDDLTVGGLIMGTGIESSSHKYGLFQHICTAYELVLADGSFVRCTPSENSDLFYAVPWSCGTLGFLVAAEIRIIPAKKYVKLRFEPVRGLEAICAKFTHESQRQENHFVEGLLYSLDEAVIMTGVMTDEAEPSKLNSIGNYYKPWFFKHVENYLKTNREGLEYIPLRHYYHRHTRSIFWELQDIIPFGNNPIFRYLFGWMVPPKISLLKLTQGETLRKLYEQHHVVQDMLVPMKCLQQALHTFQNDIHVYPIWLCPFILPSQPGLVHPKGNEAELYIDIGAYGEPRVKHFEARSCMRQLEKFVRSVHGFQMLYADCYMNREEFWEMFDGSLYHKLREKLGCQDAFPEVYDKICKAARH
Test: Desmosterol assay in HepG2 cells
Conditions: desmosterol accumulation, 2 h
quantity name: IC50

Value wanted: IC50 (DHCR24 (Homo sapiens)) of entry COc1cc(/C=C2\CCCN([C@@H](C)c3ccc(F)cc3)C2=O)ccc1-n1cnc(C)c1
63 nM

----------
assay: Compound exposure in rats (LC-MS/MS, brain tissue binding); assay type: in vivo; settings: Wistar, CSF, oral; rat, 30 mg/kg, 6 h post-dose; read-out: CSF concentration
quantity name: concentration at 6 h (nM)
Numbers only; they are read as nM.

Please report the recorded concentration at 6 h for COc1nc(C2=NOC[C@H](c3cc4ccccc4o3)N2)ccc1-n1cnc(C)c1 .
122

Taken from paper PMC5004293.
